# assay_summary: self-splicing fitness, log relative to wild type (ln ratio); higher = more splicing; Tetrahymena group I intron in knt gene, E. coli kanamycin selection, DiMSum; sequences stand for … in CUCUCU…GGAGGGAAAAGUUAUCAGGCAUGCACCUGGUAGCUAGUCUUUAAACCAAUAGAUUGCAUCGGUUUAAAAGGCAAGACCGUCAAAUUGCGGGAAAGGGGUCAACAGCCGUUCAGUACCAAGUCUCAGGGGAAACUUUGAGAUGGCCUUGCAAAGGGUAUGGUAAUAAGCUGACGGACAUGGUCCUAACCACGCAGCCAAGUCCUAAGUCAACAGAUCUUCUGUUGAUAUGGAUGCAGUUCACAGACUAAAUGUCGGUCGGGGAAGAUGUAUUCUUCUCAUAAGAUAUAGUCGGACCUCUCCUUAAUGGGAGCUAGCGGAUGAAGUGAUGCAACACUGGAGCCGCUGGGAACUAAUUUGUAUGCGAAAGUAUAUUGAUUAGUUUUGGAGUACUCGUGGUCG;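 also: selection with 25 µg/mL kanamycin versus none on LB agar overnight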
# condition: 37 °C
measurement_name: self-splicing fitness (ln)
Note: the reply should be a number with no unit written.

Worked examples, 5 sequences total:
>>> numeric_value("CGGGAGCAAUAUUACGACAU")
-2.67
>>> numeric_value("CCUGAGCAAUAUUACGGUUA")
-2.96
>>> numeric_value("AUAAAGCAAUAUUACGAGCU")
0.246
>>> numeric_value("AGACAGCAAUAUUACGUACA")
-0.238
>>> numeric_value("AAGGAGCAAUAUUACGAUCC")
0.127

Would you kindly share the measured self-splicing fitness (ln) for GCAAAGCAAUAUUACGUGCG ? -0.144

Would you kindly share the measured self-splicing fitness (ln) for AUUGAGCAAUAUUACGACGG ? -3.4

Would you kindly share the measured self-splicing fitness (ln) for UCUUAGCAAUAUUACGCCCA ? -0.128

Would you kindly share the measured self-splicing fitness (ln) for CCUUAGCAAUAUUACGAUCU ? -2.88

Would you kindly share the measured self-splicing fitness (ln) for UUCAAGCAAUAUUACGCUCA ? 0.0916

Would you kindly share the measured self-splicing fitness (ln) for UAGAAGCAAUAUUACGCUUU ? -1.99

Would you kindly share the measured self-splicing fitness (ln) for UGCAAGCAAUAUUACGCUCG ? -1.83

Would you kindly share the measured self-splicing fitness (ln) for AUAUAGCAAUAUUACGGCCU ? -1.58

Would you kindly share the measured self-splicing fitness (ln) for CAUCAGCAAUAUUACGAUUG ? -0.782

Would you kindly share the measured self-splicing fitness (ln) for UCCAAGCAAUAUUACGCCAG ? -1.9

Would you kindly share the measured self-splicing fitness (ln) for GUGUAGCAAUAUUACGUGCG ? -0.374

---

Entries and their self-splicing fitness (ln) values follow.
# assay_summary: self-splicing fitness, log relative to wild type (ln ratio); higher = more splicing; Tetrahymena group I intron in knt gene, E. coli kanamycin selection, DiMSum; sequences stand for … in CUCUCU…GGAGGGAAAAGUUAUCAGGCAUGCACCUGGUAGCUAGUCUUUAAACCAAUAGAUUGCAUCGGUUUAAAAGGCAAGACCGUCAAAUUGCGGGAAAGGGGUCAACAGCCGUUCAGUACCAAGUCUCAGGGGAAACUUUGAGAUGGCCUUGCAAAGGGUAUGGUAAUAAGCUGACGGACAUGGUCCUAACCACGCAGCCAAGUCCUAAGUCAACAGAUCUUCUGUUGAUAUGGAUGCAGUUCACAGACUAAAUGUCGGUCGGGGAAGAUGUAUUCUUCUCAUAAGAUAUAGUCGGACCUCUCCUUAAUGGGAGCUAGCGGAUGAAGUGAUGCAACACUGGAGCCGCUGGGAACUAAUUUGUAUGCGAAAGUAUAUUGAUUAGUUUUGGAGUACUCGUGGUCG
# condition: 37 °C
Note: the reply should be a number with no unit written.

Worked examples, 5 sequences total:
>>> numeric_value("AUAUAGCAAUAUUACGUUAA")
-3.36
>>> numeric_value("AAUAAGCAAUAUUACGCACC")
0.346
>>> numeric_value("UCCGAGCAAUAUUACGUUCA")
-3.16
>>> numeric_value("CAGGAGCAAUAUUACGAUCU")
-2.45
>>> numeric_value("GGGGAGCAAUAUUACGUCUG")
-1.24

Field: next sequence
Would you kindly share the measured self-splicing fitness (ln) for AGUAAGCAAUAUUACGAGCU ? -1.98
